Molecular target: Hexokinase-4 (Homo sapiens) (UniProt P35557)
Sequence (P35557 whole entry): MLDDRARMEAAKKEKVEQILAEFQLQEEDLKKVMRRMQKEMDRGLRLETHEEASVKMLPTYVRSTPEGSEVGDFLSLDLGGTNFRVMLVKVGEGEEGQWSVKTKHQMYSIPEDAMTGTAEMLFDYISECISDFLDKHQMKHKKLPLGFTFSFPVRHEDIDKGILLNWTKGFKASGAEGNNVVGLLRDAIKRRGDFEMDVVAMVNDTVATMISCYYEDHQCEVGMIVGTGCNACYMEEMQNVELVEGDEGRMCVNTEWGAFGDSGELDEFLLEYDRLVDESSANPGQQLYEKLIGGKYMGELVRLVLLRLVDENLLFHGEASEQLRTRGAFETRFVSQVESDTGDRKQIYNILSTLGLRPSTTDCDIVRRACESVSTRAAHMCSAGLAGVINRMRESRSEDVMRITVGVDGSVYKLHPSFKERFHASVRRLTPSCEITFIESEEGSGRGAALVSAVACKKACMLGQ
Experiment: Activation of recombinant human glucokinase assessed as conversion of D-glucose to D-glucose-6-phosphate in presence of 10 mM glucose by G6PDH coupled spectrophotometric assay relative to control
attribute-measured: %max (%)

Example entries and their recorded answers appear below.
Cc1cnc(-c2cc3cc(Oc4ccc(S(C)(=O)=O)nc4)c(C4CCC(=O)N4C)cc3[nH]2)s1 (single isomer, unassigned)	168
CCS(=O)(=O)c1ccc(Oc2cc3cc(-c4ccc(C(F)(F)F)cn4)[nH]c3cc2C2CCC(=O)N2C)cc1 (configuration not stated)	158
CN1C(=O)CCC1c1cc2[nH]c(-c3ccccn3)cc2cc1Oc1ccc(S(C)(=O)=O)nc1 (stereo in doubt; 1-en)	158
CN1C(=O)CCC1c1cc2[nH]c(-c3ccccn3)cc2cc1Oc1ccc(S(C)(=O)=O)nc1 (single isomer, unassigned; ent-1)	193
COC(=O)c1ccc(-c2cc3cc(Oc4ccc(S(C)(=O)=O)nc4)c(C4CCC(=O)N4C)cc3[nH]2)nc1 (racemic)	184

A: CCOC(=O)c1ccc(Oc2cc3cc(-c4ccc(C(F)(F)F)cn4)[nH]c3cc2C2CCC(=O)N2C)cc1 (configuration not stated)
B: CN1C(=O)CCC1c1cc2[nH]c(-c3cnccn3)cc2cc1Oc1ccc(S(C)(=O)=O)nc1 (stereo in doubt; 3)
Among A and B , which shows a numerically higher %max result? In your reply, give the label of the chosen option.
B

###

Test: Solubility of the compound at pH 2
Format: physicochemical
Settings: buffer
attribute-measured: solubility (µM)

a: CN1C(=O)CCC1c1cc2[nH]c(-c3ccc(C(F)(F)F)cn3)cc2cc1Oc1ccc(C(=O)O)cc1 (configuration not stated)
b: CN1C(=O)CCC1c1cc2[nH]c(-c3ccccn3)cc2cc1Oc1ccc(S(C)(=O)=O)nc1 (single isomer, unassigned; ent-1)
Among a and b , which shows a numerically higher solubility result? In your reply, give the label of the chosen option.
b
(b: 194 µM, a: 5 µM)

###

Biological target: Hexokinase-4 (Homo sapiens, UniProt P35557)
Sequence (P35557 whole entry): as above
Test: Activation of recombinant human glucokinase assessed as conversion of D-glucose to D-glucose-6-phosphate in presence of 2.5 mM glucose by G6PDH coupled spectrophotometric assay
attribute-measured: EC50 (nM)

Example entries and their recorded answers appear below.
Cc1cnc(-c2cc3cc(Oc4ccc(S(C)(=O)=O)nc4)c(C4CCC(=O)N4C)cc3[nH]2)s1 (single isomer, unassigned)	4.5
CN1C(=O)CCC1c1cc2[nH]c(-c3ccc(C(F)(F)F)cn3)cc2cc1Oc1ccc(S(C)(=O)=O)nc1 (single isomer, unassigned; ent-2)	86
CCOC(=O)c1ccc(Oc2cc3cc(-c4ccc(C(F)(F)F)cn4)[nH]c3cc2C2CCC(=O)N2C)cc1 (centres undefined)	4.8

P: CN1C(=O)CCC1c1cc2[nH]c(-c3ccc(C(C)(C)O)cn3)cc2cc1Oc1ccc(S(C)(=O)=O)nc1 (stereo in doubt; 4-en)
Q: CN1C(=O)CCC1c1cc2[nH]c(-c3ccccn3)cc2cc1Oc1ccc(S(C)(=O)=O)nc1 (single isomer, unassigned; ent-1)
Among P and Q , which shows a numerically higher EC50 result? In your reply, give the label of the chosen option.
P
(P: 31 nM, Q: 3.7 nM)

A: CCS(=O)(=O)c1ccc(Oc2cc3cc(-c4ccc(C(F)(F)F)cn4)[nH]c3cc2C2CCC(=O)N2C)cc1 (centres undefined)
B: COC(=O)c1ccc(-c2cc3cc(Oc4ccc(S(C)(=O)=O)nc4)c(C4CCC(=O)N4C)cc3[nH]2)nc1 (racemic)
Among A and B , which shows a numerically higher EC50 result? In your reply, give the label of the chosen option.
B
(B: 8.2 nM, A: 2 nM)
